# Tested on: HCV replicon D168V variant in Huh7 cells
# run-description: microbe, parasite or virus in culture
# Format: cell-based, Hepatitis C virus
# assay-conditions: Hepatitis C virus, Huh-7, read-out: Replicon EC50 (nM) D168V, Table 4
# Procedure: Mutations (R155K, A516T, D168A and D168V) were constructed by site-directed mutagenesis using a Con1 (genotype 1b) luciferase reporter replicon containing the H77 (genotype 1a) NS3 sequence. Replicon RNA of each protease variant was introduced into Huh7 cells by electroporation. Replication was then assessed in the presence of increasing concentrations of protease inhibitors by measuring luciferase activity (relative light units) 96 h after electroporation. […]
Here the recorded EC50 is given for each entry.
Report the value in nM with no unit label.

Lookup: Any idea what EC50 was measured for COc1ccc2nc(C(F)(F)F)c(O[C@@H]3C[C@H]4C(=O)N[C@]5(C(=O)NS(=O)(=O)C6(C)CC6)C[C@H]5/C=C\CCCCC[C@H](NC(=O)OC(C)(C)C)C(=O)N4C3)nc2c1 [Compound 19d] ?
Found: 8.31

Lookup: Entry COc1ccc2nc(Cl)c(O[C@@H]3C[C@H]4C(=O)N[C@]5(C(=O)NS(=O)(=O)C6CC6)C[C@H]5/C=C\CCCCC[C@H](NC(=O)OC(C)(C)C)C(=O)N4C3)nc2c1 [Compound 18c] please
Found: 0.73

Further cases:
Lookup: I have this compound here, CCc1nc2ccccc2nc1O[C@@H]1C[C@H]2C(=O)N[C@]3(C(=O)NS(=O)(=O)C4CC4)C[C@H]3/C=C\CCCCC[C@H](NC(=O)OC(C)(C)C)C(=O)N2C1 [Compound 18g] , and I need its recorded EC50.
Found: 14

* * *

# study-target: GT1a D168A NS3/4A protease (UniProt P27958, C1185S/D1194A, species not given)
# Construct: Ki (nM) GT1a D168A NS3/4A Protease
# Assay type: biochemical, Hepatitis C virus
# assay-conditions: read-out: Ki (nM) GT1a D168A NS3/4A Protease; Table 3
measure: Ki (nM)
Give a bare numeral; the unit nM is implied.

A selection of reference data follows.
Lookup: Lab request: please report Ki under test system GT1a D168A NS3/4A protease (UniProt P27958, C1185S/D1194A, species not given) for COc1ccc2nc(C)c(O[C@@H]3C[C@H]4C(=O)N[C@]5(C(=O)NS(=O)(=O)C6(C)CC6)C[C@H]5/C=C\CCCCC[C@H](NC(=O)OC(C)(C)C)C(=O)N4C3)nc2c1 [Compound 19b]
Found: 52

Lookup: Here is the next compound: COc1ccc2nc(C(C)C)c(O[C@@H]3C[C@H]4C(=O)N[C@]5(C(=O)NS(=O)(=O)C6(C)CC6)C[C@H]5/C=C\CCCCC[C@H](NC(=O)OC5CCCC5)C(=O)N4C3)nc2c1 [Compound 23e]
Found: 156

Kindly consider the entry below.
Lookup: Fill in the recorded Ki for this compound, with GT1a D168A NS3/4A protease (UniProt P27958, C1185S/D1194A, species not given) as test system: COc1ccc2nc(C)c(O[C@@H]3C[C@H]4C(=O)N[C@]5(C(=O)NS(=O)(=O)C6CC6)C[C@H]5/C=C\CCCCC[C@H](NC(=O)OC(C)(C)C)C(=O)N4C3)nc2c1 [Compound 18b]
Found: 50.9
